- system.under.test: T1, human CD4 (human, UniProt P01730 26-458)
- T1 construct: whole, on cells; also called hCD4
- method.summary: FACS, clonal hybridoma supernatant on human PBMCs
quantity.name: gMFI of CD4+

// worked examples, gMFI of CD4+ included
[[record]]
binder = "75110_01A06A (antibody, V domains shown, Tested as clonal hybridoma supernatant of an AlivaMab Mouse Kappa hybridoma (detected with anti-mouse Fc); Kappa light chain; also called Sib2.1) VH: EVQLVESGGGLVQPGGSLRLSCAASGFTFSSYWMSWVRQAPGKGLEWVANINEDGNEKYYVDSVKGRLTISRDNAKNSLYLQMNSLRAEDTAVYFCAREGGQWLSLDYWGQGALVTVSS VL: DIQMTQSPSSVSASVGDRVSITCRASQGISSWLAWYQQKPGKAPKILIYGASSLQSGVPSRFSGSGSGTDFTLTISSLQPEDFATYYCQQANSFPWTFGQGTKVEIK"
result = "115000 gMFI"

[[record]]
binder = "75110_02I16A (antibody, V domains shown, Tested as clonal hybridoma supernatant (AlivaMab Mouse Kappa; anti-mouse Fc detection); also called 75110_02116A) VH: QVQLQQWGAGLLKPSETLSLTCDVYGGSFSGYYWTWIRQPPGKGLEWIGEINHSGTTNSNPSLKSRVTISVDTSKSQFSLRLSSVTAADTAVYFCTRELNWFDPWGQGTLVTVSS VL: DIQMTQSPSSVSASVGDRVTITCRASQDIANWLAWYQQKPGKAPQLLIYAASSLLGGVPSRFSGSGSGADFTLTISSLHPEDFATYYCQQANSFPYTFGQGTKLEIK"
result = "145000 gMFI"


API: the following record is the query input.
Task: gMFI of CD4+ lookup needed for 75110_01C18A (antibody, V domains shown, Tested as clonal hybridoma supernatant (AlivaMab Mouse Kappa; anti-mouse Fc detection)) VH: EVQLVESGGGLIQPGGSLRLSCAASGFTVSSNYMNWVRQAPGKGLEWVSVIYAGDNTYSADSVKGRFTISRDNSNNTLCLQMNSLRAEDTAVYYCAREGGTTGAFDIWGQGTMVTVSS VL: DIQMTQSPSSVSASVGDRVTITCRASQGINSWLAWYQQKPGKAPKLLIYAASSLQSGVPSRFSGSGSGTDFTLTISSLQPEDFATYYCQQGNSFPYTFGQGTKLEIK , thanks.
Result: 205000 gMFI

Reference source: patent US20220112288A1
